Source: patent US20210024646A1

- TEST_TARGET: T1, CD73 on the surface of human tumor cells (human, UniProt P21589 27-549)
- T1 chain: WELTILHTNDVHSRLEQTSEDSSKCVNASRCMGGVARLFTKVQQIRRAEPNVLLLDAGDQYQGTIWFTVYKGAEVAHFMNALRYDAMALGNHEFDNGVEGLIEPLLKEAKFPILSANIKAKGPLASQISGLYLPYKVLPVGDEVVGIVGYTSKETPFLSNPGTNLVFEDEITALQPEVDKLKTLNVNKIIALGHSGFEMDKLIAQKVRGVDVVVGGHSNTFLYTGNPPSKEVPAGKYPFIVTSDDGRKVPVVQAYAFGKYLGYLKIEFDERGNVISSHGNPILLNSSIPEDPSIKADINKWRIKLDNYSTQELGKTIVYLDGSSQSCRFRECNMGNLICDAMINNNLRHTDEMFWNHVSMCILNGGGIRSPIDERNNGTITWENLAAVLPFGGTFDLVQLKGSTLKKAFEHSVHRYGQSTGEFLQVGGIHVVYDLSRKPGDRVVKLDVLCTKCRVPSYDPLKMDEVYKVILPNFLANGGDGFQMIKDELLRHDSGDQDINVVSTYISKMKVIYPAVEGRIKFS
- PROTOCOL_DETAILS: FACS; NCI-H1299 cells, left table

{"columns": ["BINDER", "EC50"],
 "data": [
  ["mAb001c-VK-SGS (antibody, V domains shown) VH: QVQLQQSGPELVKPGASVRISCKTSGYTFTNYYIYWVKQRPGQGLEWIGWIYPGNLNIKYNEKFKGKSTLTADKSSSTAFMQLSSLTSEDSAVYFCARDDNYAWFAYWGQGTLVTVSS VL: DIVMTQSHKFMSTSIGDRVSITCKASQDVSTAVAWYQQKPGQSPKLLIYWTNTRHTGVPDRFTGSGSGTEHTLTISSVQAEDLALYYCQQHYSTPFTFGSGTTLEIK", "1.62 nM"],
  ["Hu001c-23 (antibody, V domains shown) VH: QVQLVQSGAEVKKPGASVKVSCKASGYTFTNYYIYWVKQRPGQGLEWIGWIYPGNLNIKYNEKFKGRVTITADKSASTAYMELSSLRSEDTAVYYCARDDNYAWFAYWGQGTLVTVSS VL: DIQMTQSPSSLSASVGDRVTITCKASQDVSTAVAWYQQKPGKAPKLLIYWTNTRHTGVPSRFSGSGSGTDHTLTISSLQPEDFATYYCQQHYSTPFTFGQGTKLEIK", "1.3 nM"],
  ["Hu001c-22 (antibody, V domains shown) VH: QVQLVQSGAEVKKPGASVKVSCKASGYTFTNYYIYWVKQRPGQRLEWIGWIYPGNLNIKYNEKFKGRVTITADKSASTAYMELSSLRSEDTAVYYCARDDNYAWFAYWGQGTLVTVSS VL: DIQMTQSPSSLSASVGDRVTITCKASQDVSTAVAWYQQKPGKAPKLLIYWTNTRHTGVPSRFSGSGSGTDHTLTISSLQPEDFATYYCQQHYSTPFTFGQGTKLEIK", "1.42 nM"]
]}
